- Study system: recombinant Val122Ile TTR (Homo sapiens, UniProt P02766, V142I)
- Construct: the non-covalently associated protomers, of mass 13,761, each contain 127 residues; His6 (N); TEV cleavage site (N); made in house; host or cells: E. coli BL21 (DE3)
- Test description: Mechano-enzymatic fibrillogenesis, TTR aggregation by turbidity at 400 nm
- Type: biochemical
- Test conditions: equimolar ligand, Val122Ile TTR 9 μM, trypsin, 96 h; 100 % = protein without ligand; mean (SD)
Reported % Aggregation (Turbidity method) by item:

[
  {
    "Chem smiles": "CCc1oc(-c2cc(Cl)c(OCC[C@@H](O)[C@H](O)CCOc3c(Cl)cc(CCC(=O)O)cc3Cl)c(Cl)c2)nc1C(=O)O",
    "% Aggregation (Turbidity method)": "4.41 (1.99) %"
  },
  {
    "Chem smiles": "O=C(O)CCc1cc(Cl)c(OCC[C@@H](O)[C@H](O)CCOc2c(Cl)cc(-c3nc4ccc(C(=O)O)cc4o3)cc2Cl)c(Cl)c1",
    "% Aggregation (Turbidity method)": "4.42 (1.45) %"
  },
  {
    "Chem smiles": "Cc1n[nH]c(COCCCCOCCOc2c(Cl)cc(CCC(=O)O)cc2Cl)c1CCCOc1cc(C(=O)O)ccc1F",
    "% Aggregation (Turbidity method)": "14.88 (nd) %"
  },
  {
    "Chem smiles": "O=C(O)CCc1cc(Cl)c(OCC[C@@H](O)[C@H](O)CCOc2c(Cl)cc(Nc3ccccc3C(=O)O)cc2Cl)c(Cl)c1",
    "% Aggregation (Turbidity method)": "4.99 (0.46) %"
  },
  {
    "Chem smiles": "O=C(O)CCc1ccc(OCC[C@@H](O)[C@H](O)CCOc2c(Cl)cc(Nc3ccccc3C(=O)O)cc2Cl)c(Cl)c1",
    "% Aggregation (Turbidity method)": "6.43 (3.09) %"
  }
]

Q) If you can, please state the reported % Aggregation (Turbidity method) value of O=C(O)CCc1cc(Cl)c(OCC[C@@H](O)[C@H](O)CCOc2ccc(Nc3ccccc3C(=O)O)cc2Cl)c(Cl)c1 .
A) 11.6 (8.30) %

----------
Reported % Aggregation (Fluorescence method) by item:
- Study system: recombinant Val122Ile TTR (Homo sapiens, UniProt P02766, V142I)
- Construct: the non-covalently associated protomers, of mass 13,761, each contain 127 residues; His6 (N); TEV cleavage site (N); made in house; host or cells: E. coli BL21 (DE3)
- Test description: Mechano-enzymatic fibrillogenesis, TTR amyloid by ThT emission fluorescence
- Type: biochemical
- Test conditions: equimolar ligand, 96 h pellets, normalized to 100 % without ligand, mean (SD)

Example results:
[
  {
    "Compound": "O=C(O)CCc1ccc(OCC[C@@H](O)[C@H](O)CCOc2ccc(Nc3ccccc3C(=O)O)cc2Cl)c(Cl)c1",
    "Observed value": "15.5 (3.25) %"
  },
  {
    "Compound": "O=C(O)CCc1cc(Cl)c(OCCCOCCCOc2c(Cl)cc(-c3nc4ccc(C(=O)O)cc4o3)cc2Cl)c(Cl)c1",
    "Observed value": "8.23 (2.61) %"
  },
  {
    "Compound": "O=C(O)CCc1cc(Cl)c(OCCCOCCOc2c(Cl)cc(Nc3ccnnc3C(=O)O)cc2Cl)c(Cl)c1",
    "Observed value": "8.96 (7.24) %"
  },
  {
    "Compound": "O=C(O)Cc1cc(Cl)c(OCCCOCCOc2c(Cl)cc(CC(=O)O)cc2Cl)c(Cl)c1 [Compound B33, reference compound]",
    "Observed value": "75 (30) %"
  },
  {
    "Compound": "O=C(O)CCc1ccc(OCC[C@@H](O)[C@H](O)CCOc2c(Cl)cc(Nc3ccccc3C(=O)O)cc2Cl)c(Cl)c1",
    "Observed value": "8.31 (6.09) %"
  },
  {
    "Compound": "O=C(O)COCCOCCOCCOc1c(Cl)cc(Nc2ccccc2C(=O)O)cc1Cl",
    "Observed value": "28.8 (13.4) %"
  }
]

Q) If you can, please state the reported % Aggregation (Fluorescence method) value of CCc1oc(-c2cc(Cl)c(OCC[C@@H](O)[C@H](O)CCOc3c(Cl)cc(CCC(=O)O)cc3Cl)c(Cl)c2)nc1C(=O)O .
A) 12.6 (4.42) %

Q) Next compound: O=C(O)CCc1cc(Cl)c(OCC[C@H](O)[C@@H](O)CCOc2c(Cl)cc(Nc3ccccc3C(=O)O)cc2Cl)c(Cl)c1
A) 4.74 (2.93) %

Ref: patent US20230357134A1
